Data provenance is patent US11395857B2.

experiment: Biodistribution of 177Lu-labeled αMSH analogues in mice bearing SK-MEL-1 human melanoma; settings: male, NRG (NOD.Cg-Rag1tm1Mom Il2rgtm1Wjl/SzJ), mouse, tumour/kidney, total radioactivity, 1 h p.i., NRG mice, SK-MEL-1 melanoma
result_type: tissue to tissue ratio at 1 h
Answers are plain numbers.

Provide tissue to tissue ratio at 1 h values for the following items, in order.
1. CCCC[C@H](NC(=O)CN1CCC(NC(=O)[C@H](CCCCNC(=O)CN2CCN(CC(=O)O)CCN(CC(=O)O)CCN(CC(=O)O)CC2)NC(=O)CNC(=O)CCCc2ccc(I)cc2)CC1)C(=O)N[C@H]1CC(=O)NCCCC[C@@H](C(N)=O)N(C)C(=O)[C@H](Cc2c[nH]c3ccccc23)NC(=O)[C@H](CCCNC(=N)N)N(C)C(=O)[C@@H](Cc2ccccc2)NC(=O)[C@H](Cc2c[nH]cn2)NC1=O [^177Lu-labeled CCZ01148, metal not drawn]
2. CCCC[C@H](NC(=O)CN1CCC(NC(=O)[C@H](CCCCNC(=O)CN2CCN(CC(=O)O)CCN(CC(=O)O)CCN(CC(=O)O)CC2)NC(=O)CNC(=O)CCCc2ccc(-c3ccc(C)cc3)cc2)CC1)C(=O)N[C@H]1CC(=O)NCCCC[C@@H](C(N)=O)N(C)C(=O)[C@H](Cc2c[nH]c3ccccc23)NC(=O)[C@H](CCCNC(=N)N)N(C)C(=O)[C@@H](Cc2ccccc2)NC(=O)[C@H](Cc2c[nH]cn2)NC1=O [^177Lu-labeled CCZ01158, metal not drawn]
3. CCCC[C@H](NC(=O)CN1CCC(NC(=O)[C@H](CCCCNC(=O)CN2CCN(CC(=O)O)CCN(CC(=O)O)CCN(CC(=O)O)CC2)NC(=O)[C@H](CCC(=O)O)NC(=O)CCCc2ccc(I)cc2)CC1)C(=O)N[C@H]1CC(=O)NCCCC[C@@H](C(N)=O)N(C)C(=O)[C@H](Cc2c[nH]c3ccccc23)NC(=O)[C@H](CCCNC(=N)N)N(C)C(=O)[C@@H](Cc2ccccc2)NC(=O)[C@H](Cc2c[nH]cn2)NC1=O [^177Lu-labeled CCZ01118, metal not drawn]

Ans:
1. 0.54
2. 1.18
3. 0.77

###

assay: Biodistribution of 177Lu-labeled αMSH analogues in mice bearing B16F10 mouse melanoma; format: in vivo, C57BL/6J mice; details: mouse, heart, iv, total radioactivity; 1 h p.i., C57BL/6J mice, B16F10 melanoma; read-out: Biodistribution, Heart
result_type: tissue uptake at 1 h (%ID/g)
Numbers only, in %ID/g.

Please review the following examples before continuing.
>  <compound>
CCCC[C@H](NC(=O)CN1CCC(NC(=O)[C@H](CCCCNC(=O)CN2CCN(CC(=O)O)CCN(CC(=O)O)CCN(CC(=O)O)CC2)NC(=O)[C@H](CCC(=O)O)NC(=O)CCCc2ccc(I)cc2)CC1)C(=O)N[C@H]1CC(=O)NCCCC[C@@H](C(N)=O)N(C)C(=O)[C@H](Cc2c[nH]c3ccccc23)N(C)C(=O)[C@H](CCCNC(=N)N)N(C)C(=O)[C@@H](Cc2ccccc2)NC(=O)[C@H](Cc2c[nH]cn2)N(C)C1=O [^177Lu-labeled CCZ01088, metal not drawn]

>  <tissue uptake at 1 h [%ID/g]>
1.84

$$$$
>  <compound>
CCCC[C@H](NC(=O)CN1CCC(NC(=O)[C@H](CCCCNC(=O)CN2CCN(CC(=O)O)CCN(CC(=O)O)CCN(CC(=O)O)CC2)NC(=O)[C@H](CCC(=O)O)NC(=O)CCCc2ccc(I)cc2)CC1)C(=O)N[C@H]1CC(=O)NCCCC[C@@H](C(N)=O)NC(=O)[C@H](Cc2c[nH]c3ccccc23)NC(=O)[C@H](CCCNC(=N)N)NC(=O)[C@@H](Cc2ccccc2)NC(=O)[C@H](Cc2c[nH]cn2)NC1=O [^177Lu-labeled CCZ01082, metal not drawn]

>  <tissue uptake at 1 h [%ID/g]>
2.03

$$$$
>  <compound>
CCCC[C@H](NC(=O)CN1CCC(NC(=O)CN2CCN(CC(=O)O)CCN(CC(=O)O)CCN(CC(=O)O)CC2)CC1)C(=O)N[C@H]1CC(=O)NCCCC[C@@H](C(N)=O)N(C)C(=O)[C@H](Cc2c[nH]c3ccccc23)N(C)C(=O)[C@H](CCCNC(=N)N)N(C)C(=O)[C@@H](Cc2ccccc2)NC(=O)[C@H](Cc2c[nH]cn2)N(C)C1=O [^177Lu-labeled CCZ01099, metal not drawn]

>  <tissue uptake at 1 h [%ID/g]>
0.17

$$$$

Can you give me tissue uptake at 1 h for all of these, one by one?
1. CCCC[C@H](NC(=O)CN1CCC(NC(=O)CN2CCN(CC(=O)O)CCN(CC(=O)O)CCN(CC(=O)O)CC2)CC1)C(=O)N[C@H]1CC(=O)NCCCC[C@@H](C(N)=O)NC(=O)[C@H](Cc2c[nH]c3ccccc23)NC(=O)[C@H](CCCNC(=N)N)NC(=O)[C@@H](Cc2ccccc2)NC(=O)[C@H](Cc2c[nH]cn2)NC1=O [^177Lu-labeled CCZ01048, metal not drawn, reference compound]
2. CCCC[C@H](NC(=O)CN1CCC(NC(=O)CN2CCN(CC(=O)O)CCN(CC(=O)O)CCN(CC(=O)O)CC2)CC1)C(=O)N[C@H]1CC(=O)NCCCC[C@@H](C(N)=O)N(C)C(=O)[C@H](Cc2c[nH]c3ccccc23)NC(=O)[C@H](CCCNC(=N)N)N(C)C(=O)[C@@H](Cc2ccccc2)NC(=O)[C@H](Cc2c[nH]cn2)NC1=O [^177Lu-labeled CCZ01106, metal not drawn]
3. CCCC[C@H](NC(=O)CN1CCC(NC(=O)[C@H](CCCCNC(=O)CN2CCN(CC(=O)O)CCN(CC(=O)O)CCN(CC(=O)O)CC2)NC(=O)[C@H](CCC(=O)O)NC(=O)CCCc2ccc(I)cc2)CC1)C(=O)N[C@H]1CC(=O)NCCCC[C@@H](C(N)=O)N(C)C(=O)[C@H](Cc2c[nH]c3ccccc23)NC(=O)[C@H](CCCNC(=N)N)N(C)C(=O)[C@@H](Cc2ccccc2)NC(=O)[C@H](Cc2c[nH]cn2)NC1=O [^177Lu-labeled CCZ01118, metal not drawn]

Ans:
0.18
0.19
1.93
